Numbers sourced from patent US11739098B2.

Target: human TLR8 (Homo sapiens, UniProt Q9NR97)
Sequence (Q9NR97 27-1041): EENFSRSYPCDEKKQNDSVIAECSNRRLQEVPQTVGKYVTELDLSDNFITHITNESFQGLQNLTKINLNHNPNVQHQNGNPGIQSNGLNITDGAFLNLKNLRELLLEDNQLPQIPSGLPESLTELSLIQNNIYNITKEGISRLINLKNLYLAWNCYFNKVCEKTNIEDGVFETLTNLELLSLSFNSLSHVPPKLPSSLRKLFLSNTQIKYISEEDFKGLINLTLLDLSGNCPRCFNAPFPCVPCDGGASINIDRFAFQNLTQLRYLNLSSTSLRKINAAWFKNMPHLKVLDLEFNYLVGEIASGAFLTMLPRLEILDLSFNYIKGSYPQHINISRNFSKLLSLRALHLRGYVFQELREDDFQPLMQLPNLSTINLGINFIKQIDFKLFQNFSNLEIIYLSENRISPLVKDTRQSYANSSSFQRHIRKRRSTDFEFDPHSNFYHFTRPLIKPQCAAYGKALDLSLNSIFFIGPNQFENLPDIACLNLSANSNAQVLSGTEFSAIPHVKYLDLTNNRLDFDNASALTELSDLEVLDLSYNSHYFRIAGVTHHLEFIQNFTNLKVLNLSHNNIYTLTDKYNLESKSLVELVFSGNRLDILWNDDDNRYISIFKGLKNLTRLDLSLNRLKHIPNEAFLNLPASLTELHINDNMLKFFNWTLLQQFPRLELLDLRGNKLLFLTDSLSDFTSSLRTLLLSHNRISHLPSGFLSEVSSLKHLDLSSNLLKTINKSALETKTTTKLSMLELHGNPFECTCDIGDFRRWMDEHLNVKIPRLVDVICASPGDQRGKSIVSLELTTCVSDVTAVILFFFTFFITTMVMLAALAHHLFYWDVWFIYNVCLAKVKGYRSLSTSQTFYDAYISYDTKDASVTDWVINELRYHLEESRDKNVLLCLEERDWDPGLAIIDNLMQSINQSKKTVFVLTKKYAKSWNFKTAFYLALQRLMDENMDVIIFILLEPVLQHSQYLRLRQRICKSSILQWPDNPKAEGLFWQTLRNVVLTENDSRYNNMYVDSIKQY
Test: TLR8 inhibition reporter assay (HEK-Blue cells, SEAP reporter, R848 stimulation)
Conditions: HEK-Blue cells overexpressing human TLR8, SEAP reporter, R848 15.9 μM
pIC50: −log10 of the molar value.
quantity name: pIC50

Returns the measured pIC50 for the input molecule. Input: `CC(C)c1c(-c2cnc3[nH]c(=O)oc3c2)[nH]c2ccc(C3CCNCC3)cc12` < 5.51

---
Returns the measured pIC50 for the input molecule. Input: `CC(C)c1c(-c2cc(CO)c3nnnn3c2)[nH]c2ccc(C3CCN(C4COC4)CC3)cc12` > 7.00

Returns the measured pIC50 for the input molecule. Input: `COc1cc(-c2[nH]c3ccc(C4CCNCC4)cc3c2C(C)C)cn2cc(C(=O)N(C)C)nc12` > 7.00
